Values were extracted from ChEMBL document CHEMBL1165950.

System: A549
assay.details: Cytotoxicity against human A549 cells assessed as cell growth at 0.001 uM after 48 hrs by sulforhodamine B assay
Assay type: functional
assay.context: A549, 48 h, read-out: Activity
# growth at 0.001 µM per entry
measurement.kind: growth at 0.001 µM (%)

{"columns": ["mol.smiles", "reading"],
 "data": [
  ["Cc1cc(O)cc(-c2nn(CC#N)cc2-c2ccnc(-c3ccc(Oc4ccccc4)cc3)c2)c1", 96],
  ["COc1cc(C)cc(-c2nn(CC#N)cc2-c2ccc(-c3cccc(C(C)=O)c3)nc2)c1", 97],
  ["COc1cc(C)cc(-c2nn(CC#N)cc2-c2ccnc(-c3ccc(N(C)C)cc3)c2)c1", 97],
  ["COc1cc(C)cc(-c2c(-c3ccnc(-c4ccc(N(C)C)cc4)c3)cnn2CC#N)c1", 95],
  ["Cc1cc(O)cc(-c2nn(CC#N)cc2-c2ccnc(-c3ccc(N(C)C)cc3)c2)c1", 104],
  ["COc1cc(C)cc(-c2c(-c3ccnc(-c4ccc(C(C)=O)cc4)c3)cnn2CC#N)c1", 95]
]}

----------
molecules and their reported growth at 0.001 µM
Test system: HCT-15
assay.details: Cytotoxicity against human HCT15 cells assessed as cell growth at 0.001 uM after 48 hrs by sulforhodamine B assay
Assay type: functional
assay.context: HCT-15, 48 h, read-out: Activity
measurement.kind: growth at 0.001 µM (%)

{"columns": ["mol.smiles", "measured.target", "u", "reading"],
 "data": [
  ["COc1cc(C)cc(-c2nn(CC#N)cc2-c2ccnc(-c3ccc(N(C)C)cc3)c2)c1", "HCT-15", "%", 99],
  ["COc1cc(C)cc(-c2c(-c3ccnc(-c4ccc(C(C)=O)cc4)c3)cnn2CC#N)c1", "HCT-15", "%", 94],
  ["COc1cc(C)cc(-c2c(-c3ccnc(-c4ccc(N(C)C)cc4)c3)cnn2CC#N)c1", "HCT-15", "%", 100],
  ["Cc1cc(O)cc(-c2nn(CC#N)cc2-c2ccnc(-c3ccc(Oc4ccccc4)cc3)c2)c1", "HCT-15", "%", 94],
  ["Cc1cc(O)cc(-c2nn(CC#N)cc2-c2ccnc(-c3ccc(N(C)C)cc3)c2)c1", "HCT-15", "%", 86],
  ["COc1cc(C)cc(-c2nn(CC#N)cc2-c2ccc(-c3cccc(C(C)=O)c3)nc2)c1", "HCT-15", "%", 95]
]}

----------
Listing of entries alongside the reported growth at 0.01 µM.
Test system: NCI-H23
assay.details: Cytotoxicity against human NCI-H23 cells assessed as cell growth at 0.01 uM after 48 hrs by sulforhodamine B assay
Type: functional
assay.context: NCI-H23, 48 h, read-out: Activity

{"columns": ["mol.smiles", "growth at 0.01 µM / %"],
 "data": [
  ["COc1cc(C)cc(-c2c(-c3ccnc(-c4ccc(C(C)=O)cc4)c3)cnn2CC#N)c1", 95],
  ["Cc1cc(O)cc(-c2nn(CC#N)cc2-c2ccnc(-c3ccc(N(C)C)cc3)c2)c1", 96],
  ["COc1cc(C)cc(-c2nn(CC#N)cc2-c2ccnc(-c3ccc(N(C)C)cc3)c2)c1", 97],
  ["COc1cc(C)cc(-c2c(-c3ccnc(-c4ccc(N(C)C)cc4)c3)cnn2CC#N)c1", 67],
  ["COc1cc(C)cc(-c2nn(CC#N)cc2-c2ccc(-c3cccc(C(C)=O)c3)nc2)c1", 91],
  ["Cc1cc(O)cc(-c2nn(CC#N)cc2-c2ccnc(-c3ccc(Oc4ccccc4)cc3)c2)c1", 93]
]}

----------
Quick reference: growth at 10 µM of the listed items.
Tested on: Malme-3M
assay.details: Cytotoxicity against human MALME-3M cells assessed as cell growth at 10 uM
Format: functional
assay.context: read-out: Activity
measurement.kind: growth at 10 µM (%)

{"columns": ["mol.smiles", "u", "reading"],
 "data": [
  ["COc1cc(C)cc(-c2c(-c3ccnc(-c4ccc(N(C)C)cc4)c3)cnn2CC#N)c1", "%", 103],
  ["COc1cc(C)cc(-c2nn(CC#N)cc2-c2ccnc(-c3ccc(N(C)C)cc3)c2)c1", "%", 82],
  ["COc1cc(C)cc(-c2nn(CC#N)cc2-c2ccnc(-c3ccc(C(C)=O)cc3)c2)c1", "%", 139],
  ["COc1cc(C)cc(-c2nn(CC#N)cc2-c2ccc(-c3cccc(C(C)=O)c3)nc2)c1", "%", 60.5],
  ["Cc1cc(O)cc(-c2nn(CC#N)cc2-c2ccnc(-c3ccc(C#N)cc3)c2)c1", "%", 125],
  ["COc1cc(C)cc(-c2nn(CC#N)cc2-c2ccnc(-c3cccc(NC(C)=O)c3)c2)c1", "%", 108],
  ["Cc1cc(O)cc(-c2nn(CC#N)cc2-c2ccnc(-c3ccccc3)c2)c1", "%", 133],
  ["Cc1cc(O)cc(-c2nn(CC#N)cc2-c2ccnc(-c3ccc(Oc4ccccc4)cc3)c2)c1", "%", 115],
  ["COc1cc(C)cc(-c2c(-c3ccnc(-c4ccc(C(C)=O)cc4)c3)cnn2CC#N)c1", "%", 103],
  ["COc1cc(C)cc(-c2nn(CC#N)cc2-c2ccnc(-c3ccc(Oc4ccccc4)cc3)c2)c1", "%", 112],
  ["COc1cc(C)cc(-c2c(-c3ccnc(-c4cccc(NC(C)=O)c4)c3)cnn2CC#N)c1", "%", 108],
  ["COc1cc(C)cc(-c2nn(CC#N)cc2-c2ccnc(-c3ccc(C#N)cc3)c2)c1", "%", 111],
  ["Cc1cc(O)cc(-c2nn(CC#N)cc2-c2ccnc(-c3ccc(N(C)C)cc3)c2)c1", "%", 75]
]}

----------
System: UACC-257
assay.details: Cytotoxicity against human UACC257 cells assessed as cell growth at 0.01 uM after 48 hrs by sulforhodamine B assay
Assay type: functional
assay.context: UACC-257, 48 h, read-out: Activity

{"columns": ["mol.smiles", "measured.target", "growth at 0.01 µM / %"],
 "data": [
  ["Cc1cc(O)cc(-c2nn(CC#N)cc2-c2ccnc(-c3ccc(Oc4ccccc4)cc3)c2)c1", "UACC-257", 80],
  ["COc1cc(C)cc(-c2nn(CC#N)cc2-c2ccc(-c3cccc(C(C)=O)c3)nc2)c1", "UACC-257", 85],
  ["COc1cc(C)cc(-c2c(-c3ccnc(-c4ccc(N(C)C)cc4)c3)cnn2CC#N)c1", "UACC-257", 38],
  ["Cc1cc(O)cc(-c2nn(CC#N)cc2-c2ccnc(-c3ccc(N(C)C)cc3)c2)c1", "UACC-257", 81],
  ["COc1cc(C)cc(-c2nn(CC#N)cc2-c2ccnc(-c3ccc(N(C)C)cc3)c2)c1", "UACC-257", 91],
  ["COc1cc(C)cc(-c2c(-c3ccnc(-c4ccc(C(C)=O)cc4)c3)cnn2CC#N)c1", "UACC-257", 81]
]}

----------
Test system: MDA-MB-231
assay.details: Cytotoxicity against human MDA-MB-231 cells assessed as cell growth at 10 uM after 48 hrs by sulforhodamine B assay
Assay type: functional
assay.context: MDA-MB-231, 48 h, read-out: Activity

{"columns": ["mol.smiles", "growth at 10 µM"],
 "data": [
  ["Cc1cc(O)cc(-c2nn(CC#N)cc2-c2ccnc(-c3ccc(Oc4ccccc4)cc3)c2)c1", "-62%"],
  ["COc1cc(C)cc(-c2c(-c3ccnc(-c4ccc(N(C)C)cc4)c3)cnn2CC#N)c1", "25%"],
  ["COc1cc(C)cc(-c2nn(CC#N)cc2-c2ccnc(-c3ccc(N(C)C)cc3)c2)c1", "4%"],
  ["COc1cc(C)cc(-c2c(-c3ccnc(-c4ccc(C(C)=O)cc4)c3)cnn2CC#N)c1", "26%"],
  ["COc1cc(C)cc(-c2nn(CC#N)cc2-c2ccc(-c3cccc(C(C)=O)c3)nc2)c1", "1%"],
  ["Cc1cc(O)cc(-c2nn(CC#N)cc2-c2ccnc(-c3ccc(N(C)C)cc3)c2)c1", "-21%"]
]}

----------
Test system: CAKI-1
assay.details: Growth inhibition of human Caki1 cells after 48 hrs by sulforhodamine B assay
Format: functional
assay.context: CAKI-1, 48 h, read-out: LC50 (the source's name)
Examples of compounds with documented CC50 follow.

{"columns": ["mol.smiles", "CC50"],
 "data": [
  ["Cc1cc(O)cc(-c2nn(CC#N)cc2-c2ccnc(-c3ccc(Oc4ccccc4)cc3)c2)c1", "41 µM"],
  ["COc1cc(C)cc(-c2c(-c3ccnc(-c4ccc(C(C)=O)cc4)c3)cnn2CC#N)c1", "> 100 µM"],
  ["COc1cc(C)cc(-c2c(-c3ccnc(-c4ccc(N(C)C)cc4)c3)cnn2CC#N)c1", "> 100 µM"],
  ["COc1cc(C)cc(-c2nn(CC#N)cc2-c2ccnc(-c3ccc(N(C)C)cc3)c2)c1", "> 100 µM"],
  ["COc1cc(C)cc(-c2nn(CC#N)cc2-c2ccc(-c3cccc(C(C)=O)c3)nc2)c1", "> 100 µM"],
  ["Cc1cc(O)cc(-c2nn(CC#N)cc2-c2ccnc(-c3ccc(N(C)C)cc3)c2)c1", "> 100 µM"]
]}
